// CC50 at 24 h lookup, one value per entry
- experiment: Cytotoxicity, MTT viability assay, HepG2
- Format: cell-based
- condition context: human, hepg2 cells; HepG2, MTT, 24 h incubation, 8 to 1024 μg/mL; lowest concentration with viability less than 50%; read-out: Cytotoxicity (IC50)

{"compound": "C/N=C(\\C)NCCCOc1cc(/C=C/c2ccc(/C=C/c3cc(OCCCN/C(C)=N/C)cc(OCCCN/C(C)=N/C)c3)cc2)cc(OCCCN/C(C)=N/C)c1", "CC50 at 24 h": "> 1020 µg/mL"}

Query string: Which value of CC50 at 24 h has been reported for N=C(NCCCOc1cc(/C=C/c2ccc(/C=C/c3cc(OCCCNC(=N)C4CC4)cc(OCCCNC(=N)C4CC4)c3)cc2)cc(OCCCNC(=N)C2CC2)c1)C1CC1 in the records?
Result string: > 1020 µg/mL

Query string: Which value of CC50 at 24 h has been reported for CCC(=N)N(C)CCCOc1cc(/C=C/c2ccc(/C=C/c3cc(OCCCN(C)C(=N)CC)cc(OCCCN(C)C(=N)CC)c3)cc2)cc(OCCCN(C)C(=N)CC)c1 in the records?
Result string: > 1020 µg/mL

Query string: Which value of CC50 at 24 h has been reported for C/C(=N\C1CC1)NCCCOc1cc(/C=C/c2ccc(/C=C/c3cc(OCCCN/C(C)=N/C4CC4)cc(OCCCN/C(C)=N/C4CC4)c3)cc2)cc(OCCCN/C(C)=N/C2CC2)c1 in the records?
Result string: > 1020 µg/mL

Data provenance is patent US20260374731A1.
